Assay: Lipophilicity by shake-flask method
Type: physicochemical
Settings: pH 7.4, n-octanol/PBS, n = 3
quantity-measured: logD
Kindly provide the number alone.

In plain terms, [11CH3]Oc1ccc(Cl)c2c1C1(CCCCC1)NC(=O)N2 [[^11C]27] has a documented logD of 3.67

###

Biological target: hERG channel (Homo sapiens)
Sequence (Q12809 whole entry): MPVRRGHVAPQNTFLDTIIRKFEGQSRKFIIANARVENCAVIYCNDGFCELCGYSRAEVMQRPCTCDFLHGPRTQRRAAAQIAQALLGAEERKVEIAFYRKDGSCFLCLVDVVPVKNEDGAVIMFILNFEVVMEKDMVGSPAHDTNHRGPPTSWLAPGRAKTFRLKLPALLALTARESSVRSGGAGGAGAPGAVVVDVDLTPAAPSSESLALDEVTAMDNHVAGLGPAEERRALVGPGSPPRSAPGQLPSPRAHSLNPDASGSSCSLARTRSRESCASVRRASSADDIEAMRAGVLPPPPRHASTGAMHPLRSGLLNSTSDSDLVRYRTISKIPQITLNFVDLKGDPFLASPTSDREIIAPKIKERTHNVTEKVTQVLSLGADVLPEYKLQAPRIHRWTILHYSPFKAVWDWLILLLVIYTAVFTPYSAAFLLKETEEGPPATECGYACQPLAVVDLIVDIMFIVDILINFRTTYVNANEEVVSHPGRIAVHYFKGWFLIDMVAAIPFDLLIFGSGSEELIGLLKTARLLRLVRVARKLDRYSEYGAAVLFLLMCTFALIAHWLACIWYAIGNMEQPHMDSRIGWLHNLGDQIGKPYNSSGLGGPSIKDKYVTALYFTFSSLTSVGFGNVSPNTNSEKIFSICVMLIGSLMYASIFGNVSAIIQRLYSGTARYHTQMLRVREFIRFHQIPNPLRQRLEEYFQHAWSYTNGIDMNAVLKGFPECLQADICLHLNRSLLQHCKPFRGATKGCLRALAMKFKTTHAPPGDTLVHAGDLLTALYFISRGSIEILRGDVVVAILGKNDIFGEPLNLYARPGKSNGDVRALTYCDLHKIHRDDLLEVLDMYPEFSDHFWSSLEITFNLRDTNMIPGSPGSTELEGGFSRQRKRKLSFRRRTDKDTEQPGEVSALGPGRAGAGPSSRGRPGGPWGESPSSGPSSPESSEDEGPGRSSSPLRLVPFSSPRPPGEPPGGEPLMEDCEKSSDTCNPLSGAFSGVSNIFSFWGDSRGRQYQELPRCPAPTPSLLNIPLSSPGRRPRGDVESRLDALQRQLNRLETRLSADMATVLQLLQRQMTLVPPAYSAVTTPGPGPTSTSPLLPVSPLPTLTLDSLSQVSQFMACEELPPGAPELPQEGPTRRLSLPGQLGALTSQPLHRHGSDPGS
pIC50: −log10 of the molar value.
quantity-measured: pIC50

In plain terms, `COc1ccc(Cl)c2c1C1(CCCCC1)NC(=O)N2` has a documented pIC50 of < 4.00

###

Test: Pharmacokinetics in plasma and brain (NeuroPK study)
Assay type: in vivo, Sprague-Dawley rats
Details: rat, brain; 5 min; single iv 1 mg/kg, male Sprague-Dawley rats, n = 3; read-out: brain concentration mean
quantity-measured: concentration at 5 min (ng/g)
Please respond with the number in ng/g and leave the unit unwritten.

In plain terms, COc1ccc(Cl)c2c1C1(CCCCC1)NC(=O)N2 [Compound 27] has a documented concentration at 5 min of 3320

###

Experiment: Pharmacokinetics in plasma and brain (NeuroPK study)
Assay type: in vivo, Sprague-Dawley rats
Conditions: rat, plasma; 25 min; single iv 1 mg/kg, male Sprague-Dawley rats, n = 3; read-out: plasma concentration mean
quantity-measured: concentration at 25 min
Your answer should be a number followed by the unit of measure.

In plain terms, `COc1ccc(Cl)c2c1C1(CCCCC1)NC(=O)N2` has a documented concentration at 25 min of 229 ng/mL

###

Assay: Pharmacokinetics in plasma and brain (NeuroPK study)
Assay type: in vivo, Sprague-Dawley rats
Settings: rat, brain; 25 min; single iv 1 mg/kg, male Sprague-Dawley rats, n = 3; read-out: brain concentration mean
quantity-measured: concentration at 25 min (ng/g)
Please respond with the number in ng/g and leave the unit unwritten.

In plain terms, `COc1ccc(Cl)c2c1C1(CCCCC1)NC(=O)N2` has a documented concentration at 25 min of 876

###

Test system: CYP2C9, CYP2C19, CYP2D6, CYP3A4
Assay: CYP450 isoform inhibition profiling, other isoforms
Assay type: in vitro ADME
Details: all isoforms except CYP1A2; read-out: IC50 against the other CYP450 isoforms
quantity-measured: IC50 at 80 min

In plain terms, `COc1ccc(Cl)c2c1C1(CCCCC1)NC(=O)N2` has a documented IC50 at 80 min of ≥ 10 µM

###

Experiment: Pharmacokinetics in plasma and brain (NeuroPK study)
Format: in vivo, Sprague-Dawley rats
Settings: rat, plasma; 60 min; single iv 1 mg/kg, male Sprague-Dawley rats, n = 3; read-out: plasma concentration mean
quantity-measured: concentration at 60 min (ng/mL)
Please respond with the number in ng/mL and leave the unit unwritten.

In plain terms, `COc1ccc(Cl)c2c1C1(CCCCC1)NC(=O)N2` has a documented concentration at 60 min of 39.4
